tgt: Full-length (FL)-PRMT5-MEP50 enzyme complex (Homo sapiens (Human), UniProt O14744)
Sequence (O14744 whole entry): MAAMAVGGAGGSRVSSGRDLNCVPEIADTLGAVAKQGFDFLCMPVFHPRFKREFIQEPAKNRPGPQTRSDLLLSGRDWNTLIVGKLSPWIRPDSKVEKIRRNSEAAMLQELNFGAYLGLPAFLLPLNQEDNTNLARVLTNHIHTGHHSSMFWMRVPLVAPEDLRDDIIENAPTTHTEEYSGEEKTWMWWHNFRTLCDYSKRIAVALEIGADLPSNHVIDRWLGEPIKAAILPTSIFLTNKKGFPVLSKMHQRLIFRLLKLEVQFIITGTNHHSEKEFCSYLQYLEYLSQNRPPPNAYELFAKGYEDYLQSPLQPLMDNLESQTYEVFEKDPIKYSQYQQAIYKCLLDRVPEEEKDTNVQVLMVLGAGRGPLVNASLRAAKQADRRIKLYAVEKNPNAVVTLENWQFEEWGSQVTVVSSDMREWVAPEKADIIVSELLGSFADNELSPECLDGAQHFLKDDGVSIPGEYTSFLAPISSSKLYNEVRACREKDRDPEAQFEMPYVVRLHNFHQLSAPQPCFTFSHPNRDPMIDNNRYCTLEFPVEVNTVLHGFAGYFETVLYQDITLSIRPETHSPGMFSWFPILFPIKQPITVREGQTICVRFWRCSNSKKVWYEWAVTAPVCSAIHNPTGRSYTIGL
Sequence (Q9BQA1 whole entry partner): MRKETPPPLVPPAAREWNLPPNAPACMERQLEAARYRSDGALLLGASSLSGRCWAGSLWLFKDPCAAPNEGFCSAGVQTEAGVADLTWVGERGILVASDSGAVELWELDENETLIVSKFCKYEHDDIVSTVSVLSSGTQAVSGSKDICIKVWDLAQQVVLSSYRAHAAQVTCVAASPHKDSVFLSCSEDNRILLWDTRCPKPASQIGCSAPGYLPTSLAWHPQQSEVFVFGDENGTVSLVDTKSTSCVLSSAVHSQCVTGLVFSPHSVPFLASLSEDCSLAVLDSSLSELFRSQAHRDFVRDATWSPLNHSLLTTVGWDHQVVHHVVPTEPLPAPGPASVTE
measurementProtocol: PRMT5-MEP50 Enzyme Methylation Assay (SAMDI)
Assay type: biochemical
measurementConditions: second EC50 of biphasic fit; 0.5 nM PRMT5-MEP50, 75 nM biotinylated H4R3(Me1) peptide, 15 μM SAM, 150 minutes at 37° C.; read-out: Enzyme Methylation Assay (EC50—2)
EC50 reference
Provide only the numeric value, understood in µM.

In the examples that follow, each entry is paired with its recorded EC50.
compound: CC(=O)N1CCC(Nc2cc(C(=O)NC[C@@H](O)[C@@H]3Cc4ccc(C#N)cc4CN3)ncn2)CC1
unitAbbrev: µM
EC50: 34.9

compound: COc1ccc2c(c1)CN[C@H]([C@H](O)CNC(=O)c1ccc(-c3ncnn3C3CC3)cc1)C2
unitAbbrev: µM
EC50: 0.334

compound: CC(=O)N1CCC(Nc2cc(C(=O)NC[C@@H](O)[C@@H]3Cc4ccc(C(F)(F)F)cc4CN3)ncn2)CC1
unitAbbrev: µM
EC50: 7.23

compound: COC(=O)N1CCC(Nc2cc(C(=O)NC[C@@H](O)[C@@H]3Cc4ccc(OC)cc4CN3)ccn2)CC1
unitAbbrev: µM
EC50: 0.185

compound: CCOc1cc(-c2nnc(C3CC3)o2)ccc1C(=O)NC[C@@H](O)[C@@H]1Cc2ccc(OC)cc2CN1
unitAbbrev: µM
EC50: 0.781

[ask] What value of EC50 on Full-length (FL)-PRMT5-MEP50 enzyme complex (Homo sapiens (Human), UniProt O14744) does `COc1ccc2c(c1)CN[C@H]([C@H](O)CNC(=O)c1cc(NC3COC3)ncn1)C2` have?
[reply] 8.43

[ask] Request: EC50, test system Full-length (FL)-PRMT5-MEP50 enzyme complex (Homo sapiens (Human), UniProt O14744), entry CCOc1cc(C(=O)N2C3CCC2COC3)ccc1C(=O)NC[C@@H](O)[C@@H]1Cc2ccccc2CN1C [Example 3, 2,2,2-trifluoroacetate]
[reply] 0.574
